measurementProtocol: CBD solubility in liquid vehicles (excess CBD, shaking 24 h, HPLC)
Type: physicochemical
cond: water; converted with the specific gravity of water; read-out: CBD solubility in water
Experimental: The solubility of CBD in the investigated liquids was examined by adding the excess mass of CBD into 1 g of each test liquid in a test tube. […] The obtained filtrate was weighed, diluted and quantified by HPLC assay. The CBD solubility in the terms of the mg of CBD per g of liquid was calculated. The amount of CBD was assessed using a modified HPLC method. […]
quantityName: solubility at 24 h

input: solubility at 24 h for C=C(C)[C@@H]1CCC(C)=C[C@H]1c1c(O)cc(CCCCC)cc1O [CBD, Cannabidiol] ?
output: < 5 µg/mL

###

measurementProtocol: CBD solubility in liquid vehicles (excess CBD, shaking 24 h, HPLC)
Type: physicochemical
cond: simulated saliva fluid (SSF); simulated saliva fluid pH 6.8; read-out: solubility of CBD in pH 6.8 SSF
quantityName: solubility at 24 h

input: solubility at 24 h for C=C(C)[C@@H]1CCC(C)=C[C@H]1c1c(O)cc(CCCCC)cc1O ?
output: < 5 µg/mL
